B1: scFv; the commonest letter at each place (parent)
chain 1: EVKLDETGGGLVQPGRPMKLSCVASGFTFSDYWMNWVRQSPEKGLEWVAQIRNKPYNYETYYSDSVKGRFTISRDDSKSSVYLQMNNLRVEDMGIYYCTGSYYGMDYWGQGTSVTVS
chain 2: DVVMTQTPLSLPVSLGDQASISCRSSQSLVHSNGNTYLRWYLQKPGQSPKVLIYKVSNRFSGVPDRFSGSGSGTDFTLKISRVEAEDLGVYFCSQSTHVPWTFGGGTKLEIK

Variants of: B1
TEST: yeast surface expression (ratio to wild type); higher = more expressed
CONDITION: format: scFv 4-4-20, heavy + light
Decide by yeast surface expression: equal to or exceeding 0.8 means Condition met, less means Condition not met.

MUTANT_CODE: chain 1 F29W N35G
CLASS_LABEL: Condition not met
//
MUTANT_CODE: chain 1 D31S M34I
CLASS_LABEL: Condition not met
//
MUTANT_CODE: chain 1 Y102W Y107F
CLASS_LABEL: Condition not met
//
MUTANT_CODE: chain 1 N35G
CLASS_LABEL: Condition met
//
MUTANT_CODE: chain 1 Y102G Y107F W108K
CLASS_LABEL: Condition not met
//
MUTANT_CODE: chain 1 M105Q G109W
CLASS_LABEL: Condition not met
//
MUTANT_CODE: chain 1 W33Q W36S
CLASS_LABEL: Condition met
//
MUTANT_CODE: chain 1 G100K D106C
CLASS_LABEL: Condition not met
//
MUTANT_CODE: chain 1 Y103M M105N
CLASS_LABEL: Condition met
//
MUTANT_CODE: chain 1 D31N W36I
CLASS_LABEL: Condition not met
//
MUTANT_CODE: chain 1 G100H W108D
CLASS_LABEL: Condition not met
//
MUTANT_CODE: chain 1 S30K Y32S M34V
CLASS_LABEL: Condition met
//
MUTANT_CODE: chain 1 G100R G104Q
CLASS_LABEL: Condition not met
//
MUTANT_CODE: chain 1 W33E V37T
CLASS_LABEL: Condition not met
//
MUTANT_CODE: chain 1 G100N M105Y
CLASS_LABEL: Condition not met
//
MUTANT_CODE: chain 1 Y32P W36C
CLASS_LABEL: Condition not met
//
MUTANT_CODE: chain 1 M34P V37A
CLASS_LABEL: Condition met
//
MUTANT_CODE: chain 1 T28G F29R Y32K
CLASS_LABEL: Condition not met
//
MUTANT_CODE: chain 1 M105H G109T
CLASS_LABEL: Condition not met
//
MUTANT_CODE: chain 1 Y103I D106Q
CLASS_LABEL: Condition not met
//
MUTANT_CODE: chain 1 D106I W108Q
CLASS_LABEL: Condition not met
//
MUTANT_CODE: chain 1 M34F W36M
CLASS_LABEL: Condition met
//
MUTANT_CODE: chain 1 F29G D31E
CLASS_LABEL: Condition met
//
MUTANT_CODE: chain 1 Y107D W108N
CLASS_LABEL: Condition not met
//
MUTANT_CODE: chain 1 S101W Y107T
CLASS_LABEL: Condition not met
//
MUTANT_CODE: chain 1 Y102Q M105D
CLASS_LABEL: Condition met
//
MUTANT_CODE: chain 1 W33R M34D
CLASS_LABEL: Condition not met
//
MUTANT_CODE: chain 1 F29A M34G
CLASS_LABEL: Condition not met
//
MUTANT_CODE: chain 1 Y32L W36Y
CLASS_LABEL: Condition not met
//
MUTANT_CODE: chain 1 Y107V
CLASS_LABEL: Condition met
//
MUTANT_CODE: chain 1 W33A
CLASS_LABEL: Condition met
//
MUTANT_CODE: chain 1 T28S F29S
CLASS_LABEL: Condition met
//
MUTANT_CODE: chain 1 G104Q M105C
CLASS_LABEL: Condition not met
//
MUTANT_CODE: chain 1 D106Q
CLASS_LABEL: Condition met
//
MUTANT_CODE: chain 1 T28N W36K
CLASS_LABEL: Condition not met
//
MUTANT_CODE: chain 1 S101R Y107C
CLASS_LABEL: Condition not met
//
MUTANT_CODE: chain 1 S101Q Y103L D106G
CLASS_LABEL: Condition not met
//
MUTANT_CODE: chain 1 M105T G109L
CLASS_LABEL: Condition not met
//
MUTANT_CODE: chain 1 T28P S30K
CLASS_LABEL: Condition met
//
MUTANT_CODE: chain 1 S101Y W108V
CLASS_LABEL: Condition not met
//
MUTANT_CODE: chain 1 S30P M34F
CLASS_LABEL: Condition met
